Origin of values: patent US7629332B2

- MEASUREMENT_NOTES: in vivo
- RUN_PARAMETERS: mouse
MEASURED_PARAMETER: MTD (µmol/kg)
Numbers only; they are read as µmol/kg.

{"columns": ["COMPOUND", "MEASURED_PARAMETER", "UNIT_LABEL", "ENDPOINT_VALUE"],
 "data": [
  ["O=C(NCCOP(=O)(O)O)c1cc([N+](=O)[O-])cc([N+](=O)[O-])c1N(CCBr)CCBr [Ib-7P]", "MTD", "µmol/kg", 750]
]}

Next compound, MTD to be filled in.
Find the recorded MTD belonging to O=C(NCCO)c1cc([N+](=O)[O-])cc([N+](=O)[O-])c1N(CCBr)CCBr [IIb-7] and report it.
1000

----------
MEASURED_PARAMETER: melting point

Consider the reported melting point for these molecules:
{"columns": ["MOLECULE", "MEASURED_PARAMETER", "ENDPOINT_VALUE"],
 "data": [
  ["CC(Br)CN(CC(C)Br)c1c(C(=O)NCCO)cc([N+](=O)[O-])cc1[N+](=O)[O-] (stereo not shown)", "melting point", "127 to 130 °C"],
  ["O=C(NCCO)c1cc([N+](=O)[O-])cc([N+](=O)[O-])c1N(CCI)CCI", "melting point", "129 to 131 °C"],
  ["O=C(NCCCO)c1cc([N+](=O)[O-])cc([N+](=O)[O-])c1N(CCBr)CCBr", "melting point", "89 to 94 °C"],
  ["O=C(NCCCO)c1cc([N+](=O)[O-])cc([N+](=O)[O-])c1N(CCCl)CCCl", "melting point", "89 to 91 °C"],
  ["O=C(NCCCCCCO)c1cc([N+](=O)[O-])cc([N+](=O)[O-])c1N1CC1", "melting point", "189 to 192 °C"]
]}

Find the recorded melting point belonging to CC(Br)CN(CC(C)Br)c1c(C(=O)NCCOP(=O)(O)O)cc([N+](=O)[O-])cc1[N+](=O)[O-] (stereo not shown) and report it.
157 to 161 °C

Likewise for "O=C(NCCCOP(=O)(O)O)c1cc(N(CCCl)CCCl)c([N+](=O)[O-])cc1[N+](=O)[O-]" ?
195 to 200 °C

Likewise for "CS(=O)(=O)c1cc([N+](=O)[O-])c(C(=O)NCCO)cc1N(CCBr)CCBr" ?
126 to 127 °C

Likewise for "O=C(NCCO)c1cc([N+](=O)[O-])cc([N+](=O)[O-])c1N(CCCl)CCCl" ?
109 to 111 °C

Likewise for "O=C(NCCCCO)c1cc(N(CCBr)CCBr)c([N+](=O)[O-])cc1[N+](=O)[O-]" ?
123 to 124 °C

----------
- Test system: WiDr (NTR+ve)
- MEASUREMENT_NOTES: Cell proliferation (sulphorhodamine B) IC50, NTR-transfected WiDr human colon cells
- Assay type: cell-based
- RUN_PARAMETERS: WiDr, 4 h drug exposure, growth 5 further days
pIC50: −log10 of the molar value.
Param threshold (5) applies to pIC50; output Yes when value >= threshold, No when value < threshold.

Past entries and their recorded results:
{"columns": ["SMILES", "CATEGORY"],
 "data": [
  ["O=C(NCCCCO)c1cc([N+](=O)[O-])cc([N+](=O)[O-])c1N(CCBr)CCBr", "Yes"],
  ["O=C(NCCCCCCO)c1cc([N+](=O)[O-])cc([N+](=O)[O-])c1N1CC1", "No"],
  ["O=C(NCCCO)c1c([N+](=O)[O-])ccc(N(CCBr)CCBr)c1[N+](=O)[O-]", "Yes"],
  ["O=C(NCCO)c1cc([N+](=O)[O-])cc([N+](=O)[O-])c1N(CCBr)CCBr", "Yes"]
]}

Alright, here's another compound for you.
Kindly determine if pIC50 recorded for "O=C(NCCCCCCO)c1cc([N+](=O)[O-])cc([N+](=O)[O-])c1N(CCBr)CCBr" is above or exactly 5.
Yes

----------
- MEASUREMENT_NOTES: in vivo
- RUN_PARAMETERS: CD-1 nude, mouse, ip
MEASURED_PARAMETER: log10 of MTD (log10 of the value in µmol/kg)
Values reflect log10 of reported MTD (µmol/kg).

Consider the reported log10 of MTD for these molecules:
{"columns": ["MOLECULE", "ENDPOINT_VALUE"],
 "data": [
  ["Nc1n[n+]([O-])c2ccccc2[n+]1[O-] [Tirapazamine, reference compound]", 2.50],
  ["O=C(NCCOP(=O)(O)O)c1cc([N+](=O)[O-])cc([N+](=O)[O-])c1N(CCBr)CCBr", 2.88],
  ["O=C(O)CCCc1ccc(N(CCCl)CCCl)cc1 [Chlorambucil, reference compound]", 2.37],
  ["O=C(NCCCOP(=O)(O)O)c1cc(N(CCBr)CCBr)c([N+](=O)[O-])cc1[N+](=O)[O-]", 3.00],
  ["O=C(NCCOP(=O)(O)O)c1cc([N+](=O)[O-])cc([N+](=O)[O-])c1N(CCCl)CCCl", 2.37]
]}

Find the recorded log10 of MTD belonging to "O=C(NCCCOP(=O)(O)O)c1c([N+](=O)[O-])ccc(N(CCBr)CCBr)c1[N+](=O)[O-]" and report it.
2.75

Likewise for N[C@@H](Cc1ccc(N(CCCl)CCCl)cc1)C(=O)O [Melphalan, reference compound] ?
1.63

Likewise for O=P1(N(CCCl)CCCl)NCCCO1 (stereo not drawn) [Cyclophosphamide, reference compound] ?
2.88

Likewise for O=C(NCCOP(=O)(O)O)c1cc([N+](=O)[O-])cc([N+](=O)[O-])c1N(CCI)CCI [Ib-14P] ?
2.75

----------
pIC50 reference
- System: WiDr (NTR+ve)
- MEASUREMENT_NOTES: Cell proliferation (sulphorhodamine B) IC50, NTR-transfected WiDr human colon cells
- Type: cell-based
- RUN_PARAMETERS: WiDr, 4 h drug exposure, growth 5 further days
In textbook form, pIC50 equals minus log to base ten of the concentration in mol/L.

{"columns": ["MOLECULE", "TESTED_TARGET", "ENDPOINT_VALUE"],
 "data": [
  ["O=C(NCCO)c1c([N+](=O)[O-])ccc(N(CCBr)CCBr)c1[N+](=O)[O-]", "WiDr (NTR+ve)", 5.00],
  ["O=C(NCCCO)c1cc(N(CCBr)CCBr)c([N+](=O)[O-])cc1[N+](=O)[O-]", "WiDr (NTR+ve)", 5.80],
  ["O=C(NCCCCCO)c1cc([N+](=O)[O-])cc([N+](=O)[O-])c1N(CCBr)CCBr", "WiDr (NTR+ve)", 6.05],
  ["O=C(NCCO)c1cc(N(CCBr)CCBr)c([N+](=O)[O-])cc1[N+](=O)[O-]", "WiDr (NTR+ve)", 5.82],
  ["CS(=O)(=O)c1cc([N+](=O)[O-])c(C(=O)NCCO)cc1N(CCBr)CCBr", "WiDr (NTR+ve)", 5.03]
]}

Next molecule, pIC50 to be filled in.
Find the recorded pIC50 belonging to "O=C(NCCCO)c1cc([N+](=O)[O-])cc([N+](=O)[O-])c1N(CCCl)CCCl" and report it.
4.87

----------
- System: WiDr (NTR+ve)
- MEASUREMENT_NOTES: Cell proliferation (sulphorhodamine B) IC50, NTR-transfected WiDr human colon cells
- Type: cell-based
- RUN_PARAMETERS: WiDr, 4 h drug exposure, growth 5 further days
IC50 reference
Numbers only; they are read as µM.

{"columns": ["COMPOUND", "IC50 (µM)"],
 "data": [
  ["O=C(NCCCCCO)c1cc(N(CCBr)CCBr)c([N+](=O)[O-])cc1[N+](=O)[O-] [IIa-10]", 10],
  ["O=C(NCCCCCO)c1cc([N+](=O)[O-])cc([N+](=O)[O-])c1N(CCCl)CCCl [IIb-5]", 13]
]}

Next compound, IC50 to be filled in.
Find the recorded IC50 belonging to O=C(NCCO)c1cc([N+](=O)[O-])cc([N+](=O)[O-])c1N(CCCl)CCCl [IIb-2] and report it.
11.8

----------
- Tested on: WiDr (NTR+ve)
- MEASUREMENT_NOTES: Cell proliferation (sulphorhodamine B) IC50, NTR-transfected WiDr human colon cells
- Format: cell-based
- RUN_PARAMETERS: WiDr, 4 h drug exposure, growth 5 further days
pIC50: −log10 of the molar value.
Param threshold (5) applies to pIC50; output Fulfilled when value >= threshold, Not fulfilled when value < threshold.

Past entries and their recorded results:
{"columns": ["COMPOUND", "CATEGORY"],
 "data": [
  ["O=C(NCCCO)c1cc([N+](=O)[O-])cc([N+](=O)[O-])c1N(CCBr)CCBr [IIb-8]", "Fulfilled"],
  ["O=C(NCCCCO)c1c([N+](=O)[O-])ccc(N(CCBr)CCBr)c1[N+](=O)[O-] [IIc-9]", "Not fulfilled"],
  ["O=C(NCCO)c1cc([N+](=O)[O-])cc([N+](=O)[O-])c1N(CCI)CCI [IIb-14]", "Fulfilled"],
  ["CC(Br)CN(CC(C)Br)c1c(C(=O)NCCO)cc([N+](=O)[O-])cc1[N+](=O)[O-] (stereo not drawn) [IIb-7a]", "Fulfilled"]
]}

Kindly determine if pIC50 recorded for O=C(NCCCO)c1cc(N(CCCl)CCCl)c([N+](=O)[O-])cc1[N+](=O)[O-] [IIa-3] is above or exactly 5.
Not fulfilled

Likewise for O=C(NCCCCO)c1cc([N+](=O)[O-])cc([N+](=O)[O-])c1N(CCCl)CCCl [IIb-4] ?
Not fulfilled

Likewise for O=C(NCCCCO)c1cc(N(CCBr)CCBr)c([N+](=O)[O-])cc1[N+](=O)[O-] [IIa-9] ?
Fulfilled

Likewise for O=C(NCCO)c1cc(N(CCI)CCI)c([N+](=O)[O-])cc1[N+](=O)[O-] [IIa-14] ?
Fulfilled
